I'd be grateful if you could share measured 100 nM Ag Bound (RU) for these entries.
- EXPERIMENTAL_TARGET: T1, hNPR1-mFc:hBNP complex (human, UniProt P16860 103-134)
- T1 construct: also called human NPR1 complexed to BNP
- PROTOCOL_DETAILS: SPR, mAb captured, 37C
A number alone suffices; assume RU.

binder mAb25497 (antibody, human IgG4, V domains shown) VH: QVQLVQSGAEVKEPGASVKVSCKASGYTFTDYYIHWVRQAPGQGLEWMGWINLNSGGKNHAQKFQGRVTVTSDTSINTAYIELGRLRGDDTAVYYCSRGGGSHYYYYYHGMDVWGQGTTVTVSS VL: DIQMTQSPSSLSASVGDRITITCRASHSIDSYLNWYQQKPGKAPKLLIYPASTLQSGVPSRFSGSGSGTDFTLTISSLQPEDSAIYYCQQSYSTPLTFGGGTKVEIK , 100 nM Ag Bound (RU) observed: 59

So, mAb25508 (antibody, human IgG4, V domains shown) VH: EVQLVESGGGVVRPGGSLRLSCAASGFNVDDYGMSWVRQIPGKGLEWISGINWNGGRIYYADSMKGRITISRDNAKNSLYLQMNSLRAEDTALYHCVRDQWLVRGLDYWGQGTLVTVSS VL: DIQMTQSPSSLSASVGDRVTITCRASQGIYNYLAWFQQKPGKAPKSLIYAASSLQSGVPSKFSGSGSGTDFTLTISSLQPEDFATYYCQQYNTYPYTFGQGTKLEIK ? Its 100 nM Ag Bound (RU) was 236

For mAb22033 (antibody, human IgG4, V domains shown) VH: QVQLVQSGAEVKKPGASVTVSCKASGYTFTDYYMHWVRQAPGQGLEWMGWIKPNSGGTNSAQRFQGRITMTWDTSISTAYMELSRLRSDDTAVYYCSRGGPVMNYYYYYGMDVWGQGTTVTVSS VL: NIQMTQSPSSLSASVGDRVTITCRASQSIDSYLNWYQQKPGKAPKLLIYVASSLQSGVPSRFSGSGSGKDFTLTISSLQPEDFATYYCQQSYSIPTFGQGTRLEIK the binder record lists 100 nM Ag Bound (RU) as 108

Per the record, mAb22805 (antibody, human IgG4, V domains shown) VH: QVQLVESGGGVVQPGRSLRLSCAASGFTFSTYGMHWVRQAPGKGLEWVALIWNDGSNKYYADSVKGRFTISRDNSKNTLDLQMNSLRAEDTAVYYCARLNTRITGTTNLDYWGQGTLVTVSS VL: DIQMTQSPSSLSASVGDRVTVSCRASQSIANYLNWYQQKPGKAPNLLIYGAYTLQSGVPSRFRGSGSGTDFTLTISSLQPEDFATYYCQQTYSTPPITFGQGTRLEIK has 100 nM Ag Bound (RU) of 112

Record mAb25479 (antibody, human IgG4, V domains shown) VH: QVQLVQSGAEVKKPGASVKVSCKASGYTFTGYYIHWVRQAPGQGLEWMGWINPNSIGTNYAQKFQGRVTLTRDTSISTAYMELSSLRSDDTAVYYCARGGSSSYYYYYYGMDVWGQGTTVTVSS VL: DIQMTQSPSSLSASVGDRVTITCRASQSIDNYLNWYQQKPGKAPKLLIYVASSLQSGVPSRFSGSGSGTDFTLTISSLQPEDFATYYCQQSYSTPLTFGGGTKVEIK , field 100 nM Ag Bound (RU): 85
